TARGET_DESC: T1, biotinylated CD3 epsilon:delta heterodimer protein (Amsbio AMS.CDD-H52WO) (Homo sapiens (Human), UniProt P07766 23-126; P04234 22-105)
T1 construct: also called CD3 heterodimer
ASSAY_NAME: BLI (Octet), CD3 on SA sensor, Fab analyte;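 further: fab analyte at several concentrations up to 300 nM, association 100 s then 300 s dissociation in buffer, biosensors blocked with biocytin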
MEASURE_NAME: Kd (nM)

binder="huSP34.34.6 Fab-HF (Fab, V domains shown, also called HC34+LC6) VH: EVQLVESGGGLVQPGGSLRLSCAASGFTFNTYAMNWVRQAPGKGLEWVGRIRSKYNNYATYYAASVKGRFTISRDDSKNSLYLQMNSLKTEDTAMYYCVRHGNFGHSYVSWFAYWGQGTLVTVSS VL: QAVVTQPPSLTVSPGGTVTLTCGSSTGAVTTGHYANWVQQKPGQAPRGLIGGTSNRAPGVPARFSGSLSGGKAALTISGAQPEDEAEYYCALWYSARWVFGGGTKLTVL" measure_name=Kd test_result=8
